Listing of entries alongside the reported pEC50.
target: NLRP3 inflammasomes (Homo sapiens); construct: endogenous in cells; test: THP-1 pyroptosis test (cell pyroptosis test); conditions: THP-1 cells differentiated with PMA, LPS stimulation, 10 μM nigericin, drug 0.001-10 μM, MTT absorbance 562 nm
Sequence (Q96P20 whole entry): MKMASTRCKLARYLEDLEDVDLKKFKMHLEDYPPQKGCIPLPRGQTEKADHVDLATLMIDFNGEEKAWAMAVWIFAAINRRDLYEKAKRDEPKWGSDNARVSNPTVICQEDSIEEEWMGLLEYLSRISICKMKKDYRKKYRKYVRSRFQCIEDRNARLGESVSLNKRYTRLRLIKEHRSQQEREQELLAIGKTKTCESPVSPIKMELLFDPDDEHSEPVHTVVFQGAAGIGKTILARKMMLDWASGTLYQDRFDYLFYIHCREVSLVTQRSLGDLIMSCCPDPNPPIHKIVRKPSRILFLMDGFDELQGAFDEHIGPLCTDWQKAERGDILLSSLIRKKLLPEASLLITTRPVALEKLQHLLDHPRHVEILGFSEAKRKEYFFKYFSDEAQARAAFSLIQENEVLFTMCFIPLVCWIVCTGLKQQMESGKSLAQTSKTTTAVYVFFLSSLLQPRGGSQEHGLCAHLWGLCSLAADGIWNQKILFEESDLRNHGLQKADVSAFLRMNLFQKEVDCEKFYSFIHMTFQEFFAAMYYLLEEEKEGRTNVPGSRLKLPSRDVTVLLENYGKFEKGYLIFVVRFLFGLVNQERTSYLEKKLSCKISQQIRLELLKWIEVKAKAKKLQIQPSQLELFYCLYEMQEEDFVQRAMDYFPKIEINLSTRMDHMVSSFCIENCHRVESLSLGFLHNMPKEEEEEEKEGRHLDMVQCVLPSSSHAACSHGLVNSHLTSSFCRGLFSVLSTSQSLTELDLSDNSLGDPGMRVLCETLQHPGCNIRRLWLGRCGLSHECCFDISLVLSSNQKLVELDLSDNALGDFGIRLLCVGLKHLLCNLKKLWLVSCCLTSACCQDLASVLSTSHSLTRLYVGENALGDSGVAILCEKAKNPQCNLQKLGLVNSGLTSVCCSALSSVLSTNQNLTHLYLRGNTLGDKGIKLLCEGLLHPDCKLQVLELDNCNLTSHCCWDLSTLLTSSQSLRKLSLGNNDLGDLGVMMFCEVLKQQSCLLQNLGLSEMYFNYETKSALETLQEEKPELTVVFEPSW
pEC50: −log10 of the molar value.

{"molecule": "Cn1cnc2c(O[C@@H]3CCCN(CC(F)(F)F)C3)nnc(-c3ccc(C(F)(F)F)cc3O)c21", "pEC50": "< 6.00"}
{"molecule": "C[C@H](Nc1nnc(-c2ccc(C(F)(F)F)cc2O)c2ccccc12)c1ccccn1", "pEC50": "< 6.00"}
{"molecule": "Cc1nc2c(N[C@@H]3CCCN(C)C3)nnc(-c3ccc(C(F)(F)F)cc3O)c2n1C", "pEC50": "> 7.70"}
{"molecule": "Oc1cc(C(F)(F)F)ccc1-c1nnc(NCCN2CCOCC2)c2ccccc12", "pEC50": "< 6.00"}
{"molecule": "CCc1cnc2c(N[C@@H]3CCCN(C)C3)nnc(-c3ccc(C(F)(F)F)cc3O)c2c1", "pEC50": "> 7.70"}
{"molecule": "CC(C)(O)CNc1nnc(-c2ccc(C(F)(F)F)cc2O)c2ccccc12", "pEC50": "< 6.00"}
{"molecule": "C[C@H](Nc1nnc(-c2ccc(C(F)(F)F)cc2O)c2ccccc12)c1ccc(F)cc1", "pEC50": "< 6.00"}
{"molecule": "Cc1cnc2c(N[C@@H]3CCCN(C)C3)nnc(-c3ccc(F)cc3O)c2c1", "pEC50": "> 7.70"}
{"molecule": "CN1CCC[C@@H]1CNc1nnc(-c2ccc(C(F)(F)F)cc2O)c2ccccc12", "pEC50": "6.00 to 6.30"}
{"molecule": "CN1CCC[C@@H](Nc2nnc(-c3ccc(C(F)(F)F)cc3O)c3c2cnn3C)C1", "pEC50": "> 7.70"}
{"molecule": "Cn1cnc2c(N[C@H]3CCc4ncccc43)nnc(-c3ccc(C(F)(F)F)cc3O)c21", "pEC50": "< 6.00"}
{"molecule": "Cc1ccc2c(N[C@@H]3CCCN(C)C3)nnc(-c3ccc(C(F)(F)F)cc3O)c2n1", "pEC50": "6.30 to 7.00"}
{"molecule": "CN1CC(Nc2nnc(-c3ccc(C(F)(F)F)cc3O)c3cnn(C)c23)CCC1=O (centres unmarked)", "pEC50": "6.30 to 7.00"}
{"molecule": "Cn1cnc2c(NCCN3CCOCC3)nnc(-c3ccc(C(F)(F)F)cc3O)c21", "pEC50": "< 6.00"}
{"molecule": "Cc1ccc(-c2nnc(N[C@@H]3CCCN(C)C3)c3c2cnn3C)c(O)c1", "pEC50": "> 7.70"}
{"molecule": "COc1ccc2c(N[C@@H]3CCCN(C)C3)nnc(-c3ccc(C(F)(F)F)cc3O)c2c1", "pEC50": "> 7.70"}
{"molecule": "CN1CCC(Nc2nnc(-c3ccc(C(F)(F)F)cc3O)c3ccccc23)CC1", "pEC50": "6.00 to 6.30"}

----------
target: NLRP3 inflammasomes (Homo sapiens); construct: endogenous in cells; host or cells: THP-1 human monocytic cells, PMA-differentiated, LPS-primed, nigericin-stimulated; test: THP-1 pyroptosis test (cell pyroptosis test); format: cell-based; settings: THP-1 cells differentiated with PMA, LPS stimulation, 10 μM nigericin, drug 0.001-10 μM, MTT absorbance 562 nm
pEC50: −log10 of the molar value.
Overview of reported pEC50 across a group of compounds:

{"compound": "CN(C)[C@H]1CC[C@H](Nc2nnc(-c3ccc(C(F)(F)F)cc3O)c3ccccc23)CC1", "pEC50": "6.00 to 6.30"}
{"compound": "Cc1ccc2c(-c3ccc(C(F)(F)F)cc3O)nnc(N[C@@H]3CCCN(C)C3)c2n1", "pEC50": "> 7.70"}
{"compound": "Oc1cc(C(F)(F)F)ccc1-c1nnc(N[C@@H]2CCCNC2)c2ccccc12", "pEC50": "> 7.70"}
{"compound": "CN1CC(Nc2nnc(-c3ccc(C(F)(F)F)cc3O)c3ncn(C)c23)CCC1=O (centres unmarked)", "pEC50": "< 6.00"}
{"compound": "CN1CCC[C@@H](Nc2nnc(-c3ccc(C(F)(F)F)cc3O)c3c2nc(C(F)(F)F)n3C)C1", "pEC50": "> 7.70"}
{"compound": "CN1CCC[C@@H](Oc2nnc(-c3ccc(C(F)(F)F)cc3O)c3c2ncn3C)C1", "pEC50": "< 6.00"}
{"compound": "C[C@@H](Nc1nnc(-c2ccc(C(F)(F)F)cc2O)c2ccccc12)c1ccccn1", "pEC50": "< 6.00"}
{"compound": "CCN1CC[C@@H](Nc2nnc(-c3ccc(C(F)(F)F)cc3O)c3ccccc23)C1", "pEC50": "> 7.70"}
{"compound": "Cn1cnc2c(-c3ccc(C(F)(F)F)cc3O)nnc(NCC3CCOCC3)c21", "pEC50": "< 6.00"}
{"compound": "CN1CCC[C@@H](Nc2nnc(-c3ccc(C(F)(F)F)cc3O)c3cnn(C)c23)C1", "pEC50": "> 7.70"}
{"compound": "CN1CCC[C@@H](Nc2nnc(-c3ccc(F)cc3O)c3ccccc23)C1", "pEC50": "7.00 to 7.70"}
{"compound": "CN1CC[C@@H](Nc2nnc(-c3ccc(C(F)(F)F)cc3O)c3c2cnn3C)C1", "pEC50": "7.00 to 7.70"}
{"compound": "C[C@@H](Nc1nnc(-c2ccc(C(F)(F)F)cc2O)c2ccccc12)c1ccccc1", "pEC50": "< 6.00"}
{"compound": "CN1C[C@H](Nc2nnc(-c3ccc(C(F)(F)F)cc3O)c3c2cnn3C)CCC1=O", "pEC50": "6.30 to 7.00"}
{"compound": "CN1CC[C@@H](Oc2nnc(-c3ccc(C(F)(F)F)cc3O)c3c2ncn3C)C1", "pEC50": "< 6.00"}
{"compound": "CN1CC[C@@H](Nc2nnc(-c3ccc(C(F)(F)F)cc3O)c3ccccc23)C1", "pEC50": "> 7.70"}
{"compound": "CCc1cnc2c(-c3ccc(C(F)(F)F)cc3O)nnc(N[C@@H]3CCCN(C)C3)c2c1", "pEC50": "7.00 to 7.70"}
